Assay Summary: viability loss in pontine glioma line – cell-based, SU-DIPG-XIII, MIPE5.0, CellTiter-Glo, qHTS, dose response (AID 1347064);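 for AC50: cells exposed to compound for 48 hours before the viability read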
Condition Description: CellTiter-Glo ATP luminescence
Results filed as inconclusive are left out. Active and inactive are the calls of the source. No cut-off is given here; in the data, nearly all actives have AC50 up to about 23 µM.
Lab note: assign the record to one of active, inactive

Observe how each entry below is paired with its result.
Outcome logged for Nc1cc(C(F)(F)F)c(-c2nc(N3CCOCC3)nc(N3CCOCC3)n2)cn1 in this assay:
active

// param item: COC(=O)c1ccc2c(C(=Nc3ccc(N(C)C(=O)CN4CCN(C)CC4)cc3)c3ccccc3)c(O)[nH]c2c1 ; yields the recorded call
active

What classification did OC1CCC(Nc2ncc3nc(Nc4c(F)cc(F)cc4F)n([C@@H]4CCOC4)c3n2)CC1 (stereo not given in full) end up with in this test?
inactive

For this molecule, state the assay outcome: O=C(CCCCCCNC(=O)c1cnc(N(c2ccccc2)c2ccccc2)nc1)NO
active

# input for lookup
Tell me the recorded outcome of this test for Cc1ccc(S(=O)(=O)Cc2nc(-c3ccc(C(=O)NCc4cccnc4)cc3)oc2C)cc1 .
active

* * *

Item-by-item account of cell count
Assay Summary: viability loss with induced miR-34 in A549 – imaging, A549 dox-inducible miR-34, nuclei and caspase counts, primary screen (AID 1347080)
Condition Description: A549 miR-34 inducible, Hoechst nuclei count, 48 h; measured here: total cells without miR-34 induction
Output: the number by itself.

Need cell count, item CC(C)[C@H](NS(=O)(=O)c1ccc(-c2ccc(Br)cc2)cc1)C(=O)O
9890

I have this compound here, CCCCC[C@H](O)/C=C/[C@@H]1[C@@H](CCCCC(CC(=O)O)OC)[C@@H](O)C[C@H]1O (stereo not given in full) , and I need its recorded cell count.
6470

Which cell count value belongs to COc1ccc(NC(=O)c2ccc(-c3ccc(-c4noc(C)n4)cc3C)cc2)cc1OCCN(C)C ?
962

Item under review: CCCCC[C@H](O)/C=C/[C@H]1CC[C@@H](O)[C@@H]1C/C=C\CCCC(=O)O . Reported cell count?
6110

GET /values?readout=cell count&item= Fc1cc(-c2cccc3ncc(-c4cnn(C5CCNCC5)c4)nc23)cc(F)c1CN1CCOCC1
8220

New cases:
Need cell count, item O=C(O)CCCCCCCCCCCNC(=O)NC1CCCCC1
5790

Please look up its cell count: O=C(NOC[C@H](O)CO)c1ccc(F)c(F)c1Nc1ccc(I)cc1F
2470

Given the compound CN1C[C@H]2c3ccccc3Oc3ccc(Cl)cc3[C@@H]2C1 (racemic) , what is its reported cell count?
6410

Looking for the measured cell count of CCCC[C@H](C)C[C@H](O)/C=C/[C@@H]1[C@@H](CCCCCCC(=O)O)[C@@H](O)C[C@H]1O , can you help?
5900

Find the recorded cell count belonging to NC(N)=Nc1ccc(Cl)cc1 and report it.
9100

* * *

Assay Summary: drug combination growth inhibition, ovarian cancer – cell-based, oncology-focused library, rucaparib conditional, profiling panel (AID 1508598)
Condition Description: patient-derived ovarian cancer cells, CellTiter-Glo viability, 144 h; at 1.25 µM; OCI-P5x cells; with rucaparib 20 µM; stronger effect = lower value; 100% = cells with rucaparib alone
Simple rule here: viability less than 80% is Condition met, otherwise Condition not met.

Hello, is viability of the following compound strictly smaller than 80%? CCOc1cc(N2CCC(O)CC2)ccc1Nc1ncc2c(n1)N(C)c1ccccc1C(=O)N2C
Condition not met

New cases:
Lab log: compare recorded viability with 80%; is it strictly lower for Nc1nc(Nc2ccc(S(N)(=O)=O)cc2)nn1C(=O)c1c(F)cccc1F ?
Condition not met

Hello, I'm reviewing records and need to know if viability of C#CC[C@H](c1nc2cc(Cl)ccc2c(=O)n1Nc1ccccc1)N(CCCN)C(=O)c1cccc(Cl)c1F is below 80%. Could you check?
Condition met

Hello, I'm reviewing records and need to know if viability of Nc1ccccc1NC(=O)c1ccc(CNc2nccc(-c3cccnc3)n2)cc1 is below 80%. Could you check?
Condition met

Problem: For the compound Cc1nc2c(-c3cnc(N)nc3)nc(N3CCOCC3)nc2n1C(C)C , is viability under 80%?
Condition met

* * *

Listed molecules paired with reported inhibition
Assay Summary: growth inhibition, single agents and combos, LFS_MB_2R, cell-based, cisplatin combos, synergistic combos for chromothripsis tumors (AID 1671457);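 note: cells exposed to compound for four days before readout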
Condition Description: LFS_MB_2R medulloblastoma cells, at 0.5 µM, stronger effect = higher value
Your answer is read as %, so omit the unit and give the number.

Some molecules with known inhibition results, for comparison:
Look up inhibition for this molecule: CN(C)CCN1C(=O)c2cccc3cc(N)cc(c23)C1=O
-25.1

Please report the recorded inhibition for N=C1CCCN1Cc1[nH]c(=O)[nH]c(=O)c1Cl .
-11.5

I have this molecule here, c1cc(Nc2cc(C3CC3)[nH]n2)nc(Nc2ccc3nc[nH]c3c2)n1 , and I need its recorded inhibition.
80.7

New cases:
Looking for the measured inhibition of O=C(O)[C@H](Cc1c[nH]c2ccccc12)N1C(=O)c2ccccc2C1=O , can you help?
-17.3

Consider the molecule O=C(COc1cccc2c(=O)[nH]ccc12)c1ccccc1 and give its measured inhibition.
-15.2

I'd like to know its inhibition. The molecule in question is CC(=O)Nc1nc(C)c(-c2ccc(Cl)c(S(=O)(=O)NCCO)c2)s1
9.32

Any idea what its inhibition is? The molecule is CN(C)C/C=C/C(=O)Nc1ccc(C(=O)Nc2cccc(Nc3ncc(Cl)c(-c4c[nH]c5ccccc45)n3)c2)cc1
75.5

* * *

Test system: Hepatitis C virus NS3 helicase
Assay Summary: blockers of NS3h binding to ssDNA – biochemical, fluorescence polarization, LOPAC1280 library, primary screen (AID 687035)
Condition Description: Purified HCV NS3 helicase, Cy5-dT15 ssDNA binding fluorescence polarization; stronger effect = higher value; concentration not given here
Activity calls are given as the source filed them. Cut-off read from the data, not from the text of the source: active = inhibition above about 37%; inactive = the rest.
# inhibition per entry

Reported inhibition for N#C/C(=C\c1ccc(-c2cc(Cl)ccc2Cl)o1)C(=O)Nc1cccc2ncccc12 : what is it?
-12% (inactive)

Sample COc1ccccc1N1CCN(CCN(C(=O)C2CCCCC2)c2ccccn2)CC1 — what was its inhibition?
-3% (inactive)

Can you share its inhibition? I mean this compound: CC(=O)O[C@H]1C[C@@H]2CC[C@@H]3[C@H](CC[C@@]4(C)[C@H]3C[C@H]([N+]3(C)CCCCC3)[C@@H]4OC(C)=O)[C@@]2(C)C[C@@H]1[N+]1(C)CCCCC1
1% (inactive)

Next:
For the compound shown here, CC(N)C1CCC(C(=O)Nc2ccncc2)CC1 (stereo unspecified) , give the reported inhibition.
-1% (inactive)

Entry CC(C)(C)c1onc(OCP(=O)(O)O)c1CC(N)C(=O)O (stereo unspecified) has what inhibition?
-3% (inactive)

Would you mind telling me what inhibition value was observed for COc1cc2ncnc(Nc3cccc(Cl)c3)c2cc1OC ?
0% (inactive)

Name the reported inhibition value associated with the compound O=c1oc(Cl)c(Cl)c2ccccc12
-3% (inactive)

* * *

Assay Summary: viability loss in pontine glioma line – cell-based, SU-DIPG-XIII, MIPE4.0, CellTiter-Glo, qHTS, dose response (AID 1347061);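 note: cells exposed to compound for 48 hours before readout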
Condition Description: CellTiter-Glo ATP luminescence
Results filed as inconclusive are left out. The source made the active and inactive calls. Cut-off not given; nearly all actives show AC50 up to about 37 µM.
Valid outcomes are listed here; reply with one: active, inactive

Recorded test call requested for C[C@@]1(c2cc(-c3cncnc3)c(F)cc2F)CCSC(N)=N1
active

Answer briefly: the call reported for O=C(NCc1ccccc1)[C@H](Cc1ccccc1)NC(=O)[C@H]1O[C@@H]1C(=O)NCCc1ccc(O)cc1 in this assay.
inactive

What call does the record list for Cc1cc(OCCCc2c(C(=O)O)n(Cc3cccnc3)c3c(-c4c(COc5ccc(N6CCN([S+](C)(=O)[O-])CC6)cc5)nn(C)c4C)cccc23)cc(C)c1Cl ?
inactive

Hello, I am checking results. What call was entered for Cc1nc(NC(=O)N2CCC[C@H]2C(N)=O)sc1-c1ccnc(C(C)(C)C(F)(F)F)c1 ?
active

Further cases:
Outcome? Cn1cnc2c(F)c(Nc3ccc(Br)cc3F)c(C(=O)NOCCO)cc21
active

Name the outcome recorded for COc1cc(OC2CCN(C)CC2)ccc1Nc1ncc2c(n1)n(C1CCCC1)c(=O)n2C in the assay.
active

Could you please tell me the result logged for CN(C)C1CCN(C(=O)c2ccc(NC(=O)Nc3nc(N4CCOCC4)nc(N4CCOCC4)n3)cc2)CC1 in this assay?
active

For CCN(CC)CCn1c(=O)c(Cc2ccc(OC)cc2)nc2ccccc21 , what call appears in the results of this test?
inactive

Which result was noted for this molecule in the test: CCCCCCCCCCCCCCCC(=O)OC[C@@H](NC(=O)C(Cl)Cl)[C@H](O)c1ccc([N+](=O)[O-])cc1
inactive

* * *

Assay Summary: viability loss in pontine glioma line – cell-based, SU-DIPG-XIII, MIPE5.0, CellTiter-Glo, qHTS, dose response (AID 1347064);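 for AC50: cells exposed to compound for 48 hours before the viability read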
Condition Description: CellTiter-Glo ATP luminescence
Records with an inconclusive call do not appear. Active and inactive are the calls of the source. Cut-off not given; nearly all actives show AC50 up to about 23 µM.
Can you answer with just one of these options? T (active), F (inactive)

Some entries whose results are on file:
How did this test come out for CN1CCN(c2ccc(-c3cccc(CN4CCOCC4)c3)cc2NC(=O)c2c[nH]c(=O)cc2C(F)(F)F)CC1 ?
F

Kindly provide the recorded test outcome for the following molecule: CCC[C@H](NC(=O)/C(C#N)=C/c1cccc(Br)n1)c1ccccc1
T

Hi team, can someone confirm the assay call for CC(C)(O)CS(=O)(=O)Nc1ccc2c(c1)CCN(C(=O)COc1cccnc1)C2 ?
T

Outcome? CN[C@@H](C)C(=O)N[C@@H]1C(=O)N(Cc2c(C)ccc3ccccc23)c2ccc(C#N)cc2N(C(C)=O)[C@H]1C
F

Dear all, I need the recorded test outcome for CNC(=O)c1ccc2c(C(=Nc3cccc(CN(C)C)c3)c3ccccc3)c(O)[nH]c2c1 , thank you.
F

---
Please share the test call associated with NC1(c2ccc(-c3nc4ccn5c(=O)[nH]nc5c4cc3-c3ccccc3)cc2)CCC1 .
T

Tell me the recorded outcome of this test for Cn1cnc2c(F)c(Nc3ccc(Br)cc3Cl)c(C(=O)NOCCO)cc21 .
T

What call does the record list for COc1cc(F)ccc1-c1ncnc(Nc2cccc(CS(C)(=N)=O)c2)n1 (centres undefined) ?
T

For Fc1cc(-c2cccc3ncc(-c4cnn(C5CCNCC5)c4)nc23)cc(F)c1CN1CCOCC1 , which call appears in the assay record?
T

Hi, sorry to bother you, what did the test record for N=C1CCCN1Cc1[nH]c(=O)[nH]c(=O)c1Cl ?
F
